// data source = ChEMBL document CHEMBL4334551

Experiment: Half life in Sprague-Dawley rat at 5 mg/kg, iv measured upto 24 hrs by LC/MS/MS analysis
Format: ADME, organism-based
Conditions: in vivo
endpoint_name: half-life (h)
// return numeric value only (unit: h, not printed)

stdin: Tell me half-life reported for Nc1cc(F)c(S(=O)(=O)N2CCC(O)CC2)cc1C(=O)Nc1cc(F)c(F)c(F)c1
stdout: 6.67

====

Target: Cytochrome P450 2C19 (Homo sapiens)
Sequence (P33261 whole entry): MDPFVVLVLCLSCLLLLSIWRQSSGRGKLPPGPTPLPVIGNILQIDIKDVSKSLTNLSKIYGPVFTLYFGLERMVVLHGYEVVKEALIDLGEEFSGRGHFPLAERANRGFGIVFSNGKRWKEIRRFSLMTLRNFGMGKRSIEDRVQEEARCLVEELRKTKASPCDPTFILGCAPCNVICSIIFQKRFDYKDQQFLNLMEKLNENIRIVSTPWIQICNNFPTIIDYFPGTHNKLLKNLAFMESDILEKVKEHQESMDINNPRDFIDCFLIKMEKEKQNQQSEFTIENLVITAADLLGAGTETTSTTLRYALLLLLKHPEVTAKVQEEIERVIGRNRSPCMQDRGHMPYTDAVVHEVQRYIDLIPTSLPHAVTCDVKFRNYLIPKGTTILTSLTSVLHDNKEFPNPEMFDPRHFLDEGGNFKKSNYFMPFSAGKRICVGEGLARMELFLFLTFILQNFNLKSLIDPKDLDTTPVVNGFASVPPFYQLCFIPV
endpoint_name: pIC50
Scale: negative log10 of molar concentration, which is what pIC50 denotes.

stdin: Query pIC50 for Nc1cc(F)c(S(=O)(=O)N2CCC(O)CC2)cc1C(=O)Nc1cc(F)c(F)c(F)c1
stdout: 4.64

====

Experiment: AUClast in Sprague-Dawley rat at 5 mg/kg, po measured upto 24 hrs by LC/MS/MS analysis
Assay type: ADME, organism-based
Design: dose 5 mg/kg, time < 24 hr, route oral
Details: in vivo
endpoint_name: AUC(0-t) at 24 h
State the result as a value with its unit after it.

stdin: In one line, give reported AUC(0-t) at 24 h of the entry Nc1cc(F)c(S(=O)(=O)N2CCC(O)CC2)cc1C(=O)Nc1cc(F)c(F)c(F)c1 .
stdout: 5050 ng·h/mL

====

Assay: Clearance in Sprague-Dawley rat at 5 mg/kg, iv measured upto 24 hrs by LC/MS/MS analysis
Type: ADME, organism-based
Settings: in vivo
endpoint_name: clearance (mL/min/kg)
Report only the number, with the unit mL/min/kg understood.

stdin: Answer with reported clearance of Nc1cc(F)c(S(=O)(=O)N2CCC(O)CC2)cc1C(=O)Nc1cc(F)c(F)c(F)c1
stdout: 13.5

====

Test: Cmax in Sprague-Dawley rat at 5 mg/kg, po measured upto 24 hrs by LC/MS/MS analysis
Type: ADME, organism-based
Set-up: dose 5 mg/kg, route oral
Settings: in vivo
endpoint_name: Cmax (ng/mL)
Respond numerically; units are ng/mL and should not be typed.

stdin: // fetch Cmax given entry Nc1cc(F)c(S(=O)(=O)N2CCC(O)CC2)cc1C(=O)Nc1cc(F)c(F)c(F)c1
stdout: 940

====

Assay: Oral bioavailability in Sprague-Dawley rat at 5 mg/kg measured upto 24 hrs by LC/MS/MS analysis
Assay type: ADME, organism-based
Settings: in vivo
endpoint_name: bioavailability
Kindly format the answer as number then unit.

stdin: Let me know recorded bioavailability for Nc1cc(F)c(S(=O)(=O)N2CCC(O)CC2)cc1C(=O)Nc1cc(F)c(F)c(F)c1 , thanks.
stdout: 80.2%
